Tested on: CCRF-CEM leukemia
Assay: NCI tumour cell line growth inhibition, 48 h
endpointName: TGI

molecule	result
O=C(O)c1cc2ccc(Cl)cc2c(O)c1C1=CCCCC1	> 100 µM
CCOC1OC(C)(C=C(C#N)C#N)CCC1C (stereo unspecified)	> 86 µM
O=C(Cc1csc2nc(-c3ccc(Br)cc3)cn12)N/N=C/c1ccccc1O	8.41 µM
O=C(Nc1c(Cl)cc([N+](=O)[O-])cc1Cl)C(=O)C(C(=O)c1ccncc1)C1OC(=O)c2ccccc21 (stereo unspecified)	> 100 µM
CCOC(=O)CC1C(C(=O)OCC)=Cn2c([nH]c3cccc4cccc2c43)=C1C(=O)OCC (stereo unspecified)	> 100 µM
c1ccc(CN2CCC(CNc3ncnc4ccccc34)C2)cc1 (stereo unspecified)	> 100 µM
Cc1nc(Nc2ccc(Cl)c(Cl)c2)sc1C(/C=C/c1ccc2c(c1)OCO2)=N/Nc1ccc([N+](=O)[O-])cc1[N+](=O)[O-]	> 100 µM
Clc1ccc(/C=C/c2csnn2)cc1	> 100 µM
CC[C@]1(O)C[C@@H]2CN(CCc3c([nH]c4ccccc34)[C@@](C(=O)OC)(c3cc4c(cc3OC)N(C)[C@H]3[C@@](O)(C(=O)OC)[C@H](OC(=O)CCCBr)[C@]5(CC)C=CCN6CC[C@]43[C@@H]65)C2)C1	> 100 µM
CN(CC(=O)O)c1ncc2c(n1)-c1ccccc1CC2	> 100 µM
CCOC(=O)C(NC(=O)c1ccccc1)(Nc1ccc(S(=O)(=O)Nc2cc(C)on2)cc1)C(F)(F)F (stereo unspecified)	> 100 µM

----------
Test system: SK-OV-3 ovarian
Assay: NCI tumour cell line growth inhibition, 48 h
Some molecules, each annotated with its measured TGI.

molecule	TGI
COc1cc2ccc(C(C)NCC#N)cc2cc1OC (stereo unspecified)	> 100 µM
C=C(CCC(=O)N(CCc1c[nH]c2ccccc12)C(=O)c1ccccc1CSCC)C(=O)OC	> 100 µM
Cc1cn([C@H]2CN(O)C[C@@H](CO)O2)c(=O)[nH]c1=O	> 100 µM
Cc1ccc(/C=C2\CCCC(C(NO)c3ccc(C)cc3)C2=NO)cc1 (stereo unspecified)	> 100 µM
CCOC(=O)NC(Nc1ccc(C(=O)O)cc1)(C(F)(F)F)C(F)(F)F	> 100 µM
C=C(C)C1CCC2(C)C1CCC1(C)C2CCC2C3(C)C4OC(OC4=O)C(C)(C)C3CCC21C (stereo unspecified)	> 100 µM
COc1ccc(C2NC(c3ccc(OC)cc3)C(C)C(=O)C2C)cc1 (stereo unspecified)	> 100 µM
c1ccc(CN2CCC(CNc3ncnc4ccccc34)C2)cc1 (stereo unspecified)	> 100 µM
COc1cc(-c2ccc[nH]2)[nH]c1/C=C1\N=C(C)C(C(=O)NC(C)C)=C1C	22.8 µM
O=C(CC/C(CC(=O)c1ccc(Cl)cc1)=N\O)Nc1cccc(Cl)c1	> 100 µM
COc1cc(CNc2nc3c(NC(C)=O)cc(C(F)(F)F)cc3nc2-c2ccccc2)cc(OC)c1OC	> 100 µM

----------
System: HOP-92 NSCLC
Assay: NCI tumour cell line growth inhibition, 48 h

compound	GI50
Oc1ccccc1/C=N/c1nc(-c2ccccc2)cs1	8.22 µM
Cc1nc2sc(C(=O)Nc3cccc(Cl)c3)c(N)c2cc1C(O)c1ccccc1 (stereo not given)	10.4 µM
Clc1cc(Cl)cc(Nc2ccc3c(OCCCN4CCOCC4)cccc3n2)c1	2.03 µM
Cn1cc(C2=C(c3cccc([N+](=O)[O-])c3)C(=O)NC2=O)c2ccccc21	4.22 µM
NCC[PH+](c1ccccc1)c1ccccc1.NCC[PH+](c1ccccc1)c1ccccc1.[Cl-].[Pt+4]	> 100 µM

Data provenance is PubChem BioAssay (NCI).
